- System: P388 leukemia ip, CD2F1 mice, survival T/C
- Assay info: NCI In Vivo Anticancer Drug Screen. Data for tumor model P388 Leukemia (intraperitoneal) in CD2F1 (CDF1) mice
- Test conditions: endpoint: median survival time; dose: 60.0 mg/kg/injection; schedule: Q01DX005 (ip); vehicle: saline with Tween-80; higher = longer survival
Inconclusive results and toxic doses are left out.
Assay endpoint: T/C

Examples with answers:
[[record]]
molecule = "CCc1ccc([O-])c(C=NCCCN(C)CCCN=Cc2cc(C)ccc2[O-])c1.[Co+3].[N-]=[N+]=[N-]"
assay_endpoint = "T/C"
measured_value = "88 % of control"

[[record]]
molecule = "CC/S(=N\\S(=O)(=O)c1ccc(C)cc1)c1cccc[n+]1[O-] (stereo not given)"
assay_endpoint = "T/C"
measured_value = "100 % of control"

[[record]]
molecule = "Cc1[nH]c(N)nc(=S)c1CCCOc1ccc([N+](=O)[O-])cc1"
assay_endpoint = "T/C"
measured_value = "99 % of control"

[[record]]
molecule = "O=C(CCC(=O)C1CCCC1=O)Nc1cccc([N+](=O)[O-])c1 (stereo not given)"
assay_endpoint = "T/C"
measured_value = "102 % of control"


Turning now to a further molecule:
Sure, the documented T/C for C/C=C(/CN/C(=C\[N+](=O)[O-])c1ccccc1)c1ccccc1 is 102 % of control

* * *

- Tested on: P388 leukemia ip, CD2F1 mice, survival T/C
- Assay info: NCI In Vivo Anticancer Drug Screen. Data for tumor model P388 Leukemia (intraperitoneal) in CD2F1 (CDF1) mice
- Test conditions: endpoint: median survival time; dose: 25.0 mg/kg/injection; schedule: Q04DX003 (ip); vehicle: saline with Tween-80; higher = longer survival
Inconclusive results and toxic doses are left out.
Assay endpoint: T/C

Examples with answers:
[[record]]
compound = "CCCCNc1ncnc2[nH]ncc12"
target_system = "P388 leukemia ip, CD2F1 mice, survival T/C"
measured_value = "95 % of control"

[[record]]
compound = "O=[n+]1c2ccccc2n([O-])c2cc(Cl)ccc21"
target_system = "P388 leukemia ip, CD2F1 mice, survival T/C"
measured_value = "112 % of control"

[[record]]
compound = "CC(=O)O.[Pb]"
target_system = "P388 leukemia ip, CD2F1 mice, survival T/C"
measured_value = "100 % of control"


Sure, the documented T/C for CCCCCCCCCCCC1(O)OC(=O)C(C)=C1C (configuration not stated) is 108 % of control

* * *

- Test system: P388 leukemia ip, CD2F1 mice, survival T/C
- Assay info: NCI In Vivo Anticancer Drug Screen. Data for tumor model P388 Leukemia (intraperitoneal) in CD2F1 (CDF1) mice
- Test conditions: endpoint: median survival time; dose: 240.0 mg/kg/injection; schedule: Q01DX005 (ip); vehicle: saline with Tween-80; higher = longer survival
Toxic doses and inconclusive results are not listed.
# T/C annotations

[[record]]
compound = "CCCCCCCCCc1ccc(OC(C)OCCOCCOCC)cc1 (centres undefined)"
measured_value = "98 % of control"

[[record]]
compound = "CCOC(=O)C1=C(C)Nc2cc[nH]c(=O)c2C1c1ccccc1Cl (centres undefined)"
measured_value = "104 % of control"

[[record]]
compound = "O=C(CCC(=O)C1CCCC1=O)Nc1cccc([N+](=O)[O-])c1 (centres undefined)"
measured_value = "101 % of control"


Turning now to a further compound:
Measured on P388 leukemia ip, CD2F1 mice, survival T/C, [Cu+2].[Cu+2].c1ccc2c(c1)-c1nc-2nc2[n-]c(nc3nc(nc4[n-]c(n1)c1ccccc41)-c1ccccc1-3)c1cc3c4nc5nc(nc6[n-]c(nc7nc(nc([n-]4)c3cc21)-c1ccccc1-7)c1ccccc61)-c1ccccc1-5 has a documented T/C of 95 % of control

* * *

# T/C annotations
- System: P388 leukemia ip, CD2F1 mice, survival T/C
- Assay info: NCI In Vivo Anticancer Drug Screen. Data for tumor model P388 Leukemia (intraperitoneal) in CD2F1 (CDF1) mice
- Test conditions: endpoint: median survival time; dose: 50.0 mg/kg/injection; schedule: Q01DX005 (ip); vehicle: saline with Tween-80; higher = longer survival
Toxic doses and inconclusive results are not listed.

Sure, the documented T/C for CCN(CC)CCNc1cccc2c(C)cc(=O)[nH]c12 is 103 % of control

* * *

# T/C annotations
- System: P388 leukemia ip, CD2F1 mice, survival T/C
- Assay info: NCI In Vivo Anticancer Drug Screen. Data for tumor model P388 Leukemia (intraperitoneal) in CD2F1 (CDF1) mice
- Test conditions: endpoint: median survival time; dose: 200.0 mg/kg/injection; schedule: Q01DX009 (ip); vehicle: saline; higher = longer survival
Toxic doses and inconclusive results are not listed.

Examples with answers:
[[record]]
compound = "CCC(=O)NS(=O)(=O)c1cccnc1Nc1c(Cl)cccc1Cl"
measured_value = "100 % of control"

[[record]]
compound = "S=C([S-])N1CC[n+]2c(-c3ccccc3)csc21"
measured_value = "91 % of control"

[[record]]
compound = "C=C[Se](=C(C(C)=O)C(C)=O)c1ccccc1 (centres undefined)"
measured_value = "92 % of control"

[[record]]
compound = "Cc1cc(Br)ccc1N=Cc1ccc(C=Nc2ccc(Br)cc2C)cc1"
measured_value = "92 % of control"


Sure, the documented T/C for CCCCCCCCC(C(=O)N/N=C(\C)c1ccccc1)C(=O)N/N=C(\C)c1ccccc1 is 100 % of control

Sure, the documented T/C for CN1CCN(CN2C(=O)C3C4C=CC(C3C2=O)C2C(=O)N(CN3CCN(C)CC3)C(=O)C42)CC1 (centres undefined) is 122 % of control

Sure, the documented T/C for COc1ccc(C2CC(=O)NC(NC#N)=N2)c(O)c1 (centres undefined) is 100 % of control

Sure, the documented T/C for O=[N+]([O-])c1cccc(C2OCC3(CO2)COC(c2cccc([N+](=O)[O-])c2)OC3)c1 (centres undefined) is 101 % of control

Sure, the documented T/C for Cc1ccccc1N(C=O)c1ccccc1C is 93 % of control

Sure, the documented T/C for COC(=O)OC(C#N)c1ccccc1[N+](=O)[O-] (centres undefined) is 94 % of control

Sure, the documented T/C for NC(C(=O)O)C(C(F)(F)F)C(F)(F)F (centres undefined) is 114 % of control

Sure, the documented T/C for CCOC(=O)C(=O)Cc1ccc(C(=N)N)cc1 is 88 % of control

Sure, the documented T/C for Oc1ccc(Cl)cc1C1CCCCC1 is 98 % of control

Sure, the documented T/C for COc1cc(/C=C/c2ccnnc2)cc(OC)c1OC is 87 % of control

Sure, the documented T/C for CCN(CC)CCO/N=c1\nc(-c2ccccc2)c2cc(Cl)ccc2s1 is 104 % of control

Sure, the documented T/C for O=C(O)c1cc(N2C(=O)c3ccc4c5ccc6c7c(ccc(c8ccc(c3c48)C2=O)c75)C(=O)N(c2ccc(O)c(C(=O)O)c2)C6=O)ccc1O is 90 % of control

* * *

- Test system: P388 leukemia ip, CD2F1 mice, survival T/C
- Assay info: NCI In Vivo Anticancer Drug Screen. Data for tumor model P388 Leukemia (intraperitoneal) in CD2F1 (CDF1) mice
- Test conditions: endpoint: median survival time; dose: 50.0 mg/kg/injection; schedule: Q01DX001 (ip); vehicle: saline; higher = longer survival
Toxic doses and inconclusive results are not listed.
Assay endpoint: T/C

Examples with answers:
[[record]]
compound = "C#CCC(B1OCCO1)B1OCCO1"
target_system = "P388 leukemia ip, CD2F1 mice, survival T/C"
assay_endpoint = "T/C"
measured_value = "90 % of control"

[[record]]
compound = "C1=CC2CC1CC2[P+](c1ccccc1)(c1ccccc1)c1ccccc1 (centres undefined)"
target_system = "P388 leukemia ip, CD2F1 mice, survival T/C"
assay_endpoint = "T/C"
measured_value = "97 % of control"

[[record]]
compound = "CCN=C(N)N=C(N)N"
target_system = "P388 leukemia ip, CD2F1 mice, survival T/C"
assay_endpoint = "T/C"
measured_value = "87 % of control"


Turning now to a further compound:
Sure, the documented T/C for CC(C)(C)c1ccc(OCc2cnc[nH]2)cc1 is 101 % of control

* * *

- Tested on: P388 leukemia ip, CD2F1 mice, survival T/C
- Assay info: NCI In Vivo Anticancer Drug Screen. Data for tumor model P388 Leukemia (intraperitoneal) in CD2F1 (CDF1) mice
- Test conditions: endpoint: median survival time; dose: 3.13 mg/kg/injection; schedule: Q01DX009 (ip); vehicle: saline with Tween-80
Toxic doses and inconclusive results are not listed. How the source made its calls: active means survival T/C of 150% or more; inactive means T/C below 125% in these data.
Your response should consist of one outcome taken from y = active, n = inactive

Example entries begin here.
[[record]]
query_smiles = "Cc1cccc(NC(=O)N(CCCl)N=O)c1"
category = "y"

[[record]]
query_smiles = "Cc1c2oc3c(C)ccc(C(=O)OCCN4CCOCC4)c3nc-2c(C(=O)OCCN2CCOCC2)c(N)c1=O"
category = "n"

[[record]]
query_smiles = "c1ccc([I+]c2ccccc2)cc1"
category = "n"


Consider the additional compound presented here.
// query Just curious, what result did COc1cccnc1/C=N/NC(N)=S get here?
// result n
